Where these numbers come from: patent US20040259909A1

- EXPERIMENTAL SYSTEM: α7 nAChR subtype (Rattus norvegicus, UniProt Q05941)
- Construct: Rat hippocampi were homogenized in 20 volumes of cold homogenisation buffer; from tissue; host or cells: rat hippocampus membranes
- Sequence (Q05941 23-502): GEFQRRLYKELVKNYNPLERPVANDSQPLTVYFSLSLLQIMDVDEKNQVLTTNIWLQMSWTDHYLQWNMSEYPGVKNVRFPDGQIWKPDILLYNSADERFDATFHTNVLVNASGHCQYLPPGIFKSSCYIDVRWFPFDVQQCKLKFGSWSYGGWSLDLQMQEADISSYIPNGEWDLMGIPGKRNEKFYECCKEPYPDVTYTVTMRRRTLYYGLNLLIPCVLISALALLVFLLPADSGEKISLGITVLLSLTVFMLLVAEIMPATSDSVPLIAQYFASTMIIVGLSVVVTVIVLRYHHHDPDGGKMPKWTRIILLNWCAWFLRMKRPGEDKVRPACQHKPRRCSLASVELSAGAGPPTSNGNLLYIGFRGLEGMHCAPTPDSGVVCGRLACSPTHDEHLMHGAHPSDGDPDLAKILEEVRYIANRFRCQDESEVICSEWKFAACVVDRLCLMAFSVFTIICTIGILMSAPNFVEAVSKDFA
- PROTOCOL DETAILS: 125I-α-Bungarotoxin (BTX) binding to rat hippocampal membranes (Test A)
- ASSAY CONTEXT: [125I]α-BTX 5 nM, rat hippocampal membranes; read-out: Binding Affinity (Ki/nM) α7
READOUT NAME: Ki (nM)
Just the number in nM, nothing appended.

// query Please report the recorded Ki for c1cnc2c(c1)C[C@@]1(CN3CCC1CC3)O2 .
// result 14

###

- EXPERIMENTAL SYSTEM: α7 nAChR subtype (Rattus norvegicus)
- Construct: Rat hippocampi were homogenized in 20 volumes of cold homogenisation buffer; from tissue; host or cells: rat hippocampus membranes
- PROTOCOL DETAILS: 125I-α-Bungarotoxin (BTX) binding to rat hippocampal membranes (Test A)
READOUT NAME: pKi
Scale for pKi: -log10 of concentration given in mol/L; no unit attached.

// query Consider the molecule O=C(NC1CN2CCC1CC2)c1cc(-c2ccccc2)cs1 (stereo not shown) and give its measured pKi.
// result 8.80

###

- EXPERIMENTAL SYSTEM: 5-HT3 (Rattus norvegicus, UniProt P35563)
- Construct: using rat small-bowel muscularis membranes suspended in 50 mM Tris; from tissue; host or cells: rat small-bowel muscularis membranes
- Sequence (P35563 24-483): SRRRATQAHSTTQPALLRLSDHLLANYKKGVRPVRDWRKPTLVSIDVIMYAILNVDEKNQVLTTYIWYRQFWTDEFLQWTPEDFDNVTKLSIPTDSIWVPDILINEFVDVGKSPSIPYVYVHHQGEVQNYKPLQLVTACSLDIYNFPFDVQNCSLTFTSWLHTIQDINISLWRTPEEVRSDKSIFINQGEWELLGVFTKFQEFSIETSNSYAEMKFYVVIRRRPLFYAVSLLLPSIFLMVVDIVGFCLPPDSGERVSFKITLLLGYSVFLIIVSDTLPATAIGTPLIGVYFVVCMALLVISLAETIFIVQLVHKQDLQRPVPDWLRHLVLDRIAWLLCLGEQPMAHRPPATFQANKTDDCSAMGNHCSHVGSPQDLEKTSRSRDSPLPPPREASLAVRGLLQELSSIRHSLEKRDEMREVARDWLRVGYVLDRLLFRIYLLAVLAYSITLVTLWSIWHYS
- PROTOCOL DETAILS: [3H]zacopride binding to rat small-bowel muscularis membranes (Test B)
- ASSAY CONTEXT: 0.5 nM [3H]zacopride, read-out: Binding Affinity (Ki/nM) 5HT3
READOUT NAME: Ki (nM)
Number in nM, nothing else.

// query Would you kindly share the measured Ki for O=C(NC1CN2CCC1CC2)c1cc(-c2ccccc2)cs1 (stereo not shown) ?
// result 20000
